# target desc: CGRP1 receptor (CRLR/RAMP1 complex) of human neuroblastoma SK-N-MC cells (human, UniProt Q16602 23-461; O60894 27-148)
# Sequence (Q16602 23-461, chain 1 of 2): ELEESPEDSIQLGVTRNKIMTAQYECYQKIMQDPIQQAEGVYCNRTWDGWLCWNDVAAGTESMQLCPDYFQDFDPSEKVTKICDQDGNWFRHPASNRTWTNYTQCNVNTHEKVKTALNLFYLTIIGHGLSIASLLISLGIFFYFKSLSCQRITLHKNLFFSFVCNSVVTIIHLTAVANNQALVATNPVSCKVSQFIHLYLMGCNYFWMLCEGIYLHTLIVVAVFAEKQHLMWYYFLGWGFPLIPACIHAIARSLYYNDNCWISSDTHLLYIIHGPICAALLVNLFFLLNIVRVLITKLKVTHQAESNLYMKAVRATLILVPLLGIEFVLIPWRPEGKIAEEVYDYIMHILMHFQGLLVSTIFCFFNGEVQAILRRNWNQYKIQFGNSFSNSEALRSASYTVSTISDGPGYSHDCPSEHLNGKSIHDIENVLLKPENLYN
# Sequence (O60894 27-148, chain 2 of 2): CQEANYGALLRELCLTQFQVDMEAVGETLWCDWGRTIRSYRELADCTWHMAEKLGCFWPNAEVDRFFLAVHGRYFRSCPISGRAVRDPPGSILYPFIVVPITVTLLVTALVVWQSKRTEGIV
# procedure details: cell-based or functional assay
Ends that are not written are not given here.
attribute measured: IC50 (nM)
Write it as a number; the unit nM goes unstated.

Value of measured IC50 for the entry CGGGGGGGVTHRLAGLLSRSGGVVKNNFVPTNVGSKAF-NH2 [SEQ ID NO 2] : 21.1

Value of measured IC50 for the entry Ac-WVTHRLAGLLSRSGGVCRNNFVPTDVGPFAF-NH2 [SEQ ID NO 10] : 0.36

Value of measured IC50 for the entry CGGGGGGGPTDVGPFAF-NH2 [SEQ ID NO 45] : 56.6

Value of measured IC50 for the entry Ac-WVTHRLAGLLSRSGGVKRNNFVPTDVGPFAF-NH2 [SEQ ID NO 11] : 0.51

Value of measured IC50 for the entry Ac-WVTHRLAGLLSRSGGVVRKNFVPTDVGPFAF-NH2 [SEQ ID NO 7] : 0.13
